# targetOrTestSystem: UniProt P49137
# Sequence (P49137 whole entry): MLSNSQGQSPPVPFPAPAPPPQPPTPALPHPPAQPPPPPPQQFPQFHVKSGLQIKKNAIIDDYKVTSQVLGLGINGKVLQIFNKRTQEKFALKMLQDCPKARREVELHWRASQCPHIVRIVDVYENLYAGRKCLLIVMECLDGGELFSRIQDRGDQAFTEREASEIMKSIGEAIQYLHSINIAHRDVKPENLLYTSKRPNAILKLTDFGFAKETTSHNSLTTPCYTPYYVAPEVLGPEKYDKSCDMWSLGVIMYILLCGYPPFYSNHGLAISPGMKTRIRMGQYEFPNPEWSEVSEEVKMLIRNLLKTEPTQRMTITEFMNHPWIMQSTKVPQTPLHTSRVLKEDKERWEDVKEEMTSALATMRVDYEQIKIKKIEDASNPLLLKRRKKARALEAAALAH
# assayRemarks: MK2 degradation in human THP-1 monocytic cells (MSD, 24 h)
# Format: cell-based
# Parameters: endogenous in cells
# testContext: THP-1 cells, read-out: MK2 MSD THP-1 degradation 24 h GMean External Abs DC50
Parameter DC50: see the listing below.

Would you please look over these solved cases?
- molecule: "Cn1c(=O)n(C2CCC(=O)NC2=O)c2ccc(N3CCC(CN4CCN(c5cc(-c6ccc7cc[nH]c7c6)cc(-n6cc(-c7ccc8c(c7)CCNC8=O)c(N)n6)c5)CC4)CC3)cc21 (centres unmarked)"
  targetOrTestSystem: "UniProt P49137"
  DC50: "10 to 100 nM"
- molecule: "C[C@@H]1CNc2c(sc3ccc4nc(-c5cccc(N6CCN(C(=O)COCCOCCc7cccc8c7n(C)c(=O)n8C7CCC(=O)NC7=O)CC6)c5)ccc4c23)C(=O)N1 (some centres unmarked)"
  targetOrTestSystem: "UniProt P49137"
  DC50: "< 1 nM"
- molecule: "O=C1CCN(c2cncc3c(N4CCN(CC5CCN(c6ccc(-c7cc(-c8cc9c([nH]8)CCNC9=O)ccn7)cc6)CC5)CC4)cccc23)C(=O)N1"
  targetOrTestSystem: "UniProt P49137"
  DC50: "10 to 100 nM"
- molecule: "C[C@@H]1CNc2c(sc3ccc4nc(-c5ccc(N6CCC(CCN7CCN(c8cccc9c8n(C)c(=O)n9C8CCC(=O)NC8=O)CC7)CC6)cc5)ccc4c23)C(=O)N1 (some centres unmarked)"
  targetOrTestSystem: "UniProt P49137"
  DC50: "1 to 10 nM"
- molecule: "C[C@@H]1CNc2c(sc3ccc4nc(-c5ccnc(N6CCN(CCCc7ccc8c(c7)n(C)c(=O)n8C7CCC(=O)NC7=O)CC6)c5)ccc4c23)C(=O)N1 (some centres unmarked)"
  targetOrTestSystem: "UniProt P49137"
  DC50: "< 1 nM"

# DC50 lookup, item Cn1c(=O)n(C2CCC(=O)NC2=O)c2ccc(N3CCC(CN4CCN(c5cc(-c6ccccc6)cc(-c6cc(-c7cc8c([nH]7)CCNC8=O)ccn6)c5)CC4)CC3)cc21 (centres unmarked) > 100 nM

What do we get for Cn1c(=O)n(C2CCC(=O)NC2=O)c2cccc(CCCCCCCCN3CCC4(CC3)CNC(=O)c3c4[nH]c4c3CCc3cnc(-c5ccccc5F)cc3-4)c21 (centres unmarked) ? > 100 nM

What do we get for Cc1cc(N2CCN(CCCc3ccc4c(c3)n(C)c(=O)n4C3CCC(=O)NC3=O)CC2)ncc1-c1ccc2c(ccc3sc4c(c32)NC[C@@H](C)NC4=O)n1 (some centres unmarked) ? 1 to 10 nM

What do we get for Cn1c(=O)n(C2CCC(=O)NC2=O)c2ccc(N3CCC4(CC3)CC(N3CCN(c5cc(-c6cc7c([nH]6)C6(CC6)CNC7=O)ccn5)CC3)C4)cc21 (centres unmarked) ? > 100 nM

What do we get for C[C@@H]1CNc2c(sc3ccc4nc(N5C6CCC5CN(CC5CCN(c7ccc8c(c7)n(C)c(=O)n8C7CCC(=O)NC7=O)CC5)C6)ccc4c23)C(=O)N1 (some centres unmarked) ? > 100 nM
